Here the recorded abundance fitness is given for each entry.
B1: Advillin, residues 785 to 819; numbered along this chain, O75366 (parent)
chain: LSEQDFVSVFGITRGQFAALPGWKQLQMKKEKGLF

- Variants of: B1
- procedure.details: abundance fitness (aPCA) (normalised: wild type 0, dead -1); higher = more abundant; growth selection in yeast, the domain comes from the species named
- measurement.context: Homo sapiens

- mutation.descriptor: "Q25A"
  abundance fitness: -0.525

Entry L34A has what abundance fitness?
0.128

Entry K30F : reported abundance fitness = ?
-0.345

// query abundance fitness value for entry L34D
0.284

Bench note: what abundance fitness did K29W show?
-0.075

What value of abundance fitness has been reported for the following variant? K29N
-0.09

Find the recorded abundance fitness belonging to T13G and report it.
-0.382

Reported abundance fitness for Q27P : what is it?
-0.589

Find the recorded abundance fitness belonging to K24Q and report it.
-0.072

Entry M28L has what abundance fitness?
-0.47

I'd like to know its abundance fitness. The variant in question is L20G
-0.408

Give its abundance fitness value. Item: Q27K
-0.064
